test system: Streptococcus mitis; experiment: Antibacterial activity against Streptococcus mitis; format: functional
ENDPOINT: MIC50

| COMPOUND | ENDPOINT | MEASURED |
| --- | --- | --- |
| COc1c(N2CCNC(C)C2)c(F)cc2c(=O)c(C(=O)O)cn(C3CC3)c12 (stereo not given) [GATIFLOXACIN] | MIC50 | 0.5 µg/mL |
| Cc1c(N2CC[C@@H]([C@H](C)N)C2)c(F)cc2c(=O)n(N)c(=O)n(C3CC3)c12 | MIC50 | 0.03 µg/mL |
| Cc1c(N2CC[C@@H]([C@H](C)N)C2)c(F)cc2c(=O)[nH]c(=O)n(C3CC3)c12 | MIC50 | 0.03 µg/mL |
| C[C@H]1COc2c(N3CCN(C)CC3)c(F)cc3c(=O)c(C(=O)O)cn1c23.C[C@H]1COc2c(N3CCN(C)CC3)c(F)cc3c(=O)c(C(=O)O)cn1c23.O [LEVOFLOXACIN] | MIC50 | 1 µg/mL |
| C[C@H]1NCc2cc(-c3ccc4c(=O)c(C(=O)O)cn(C5CC5)c4c3OC(F)F)ccc21 [GARENOXACIN] | MIC50 | 0.125 µg/mL |

Data provenance: ChEMBL document CHEMBL1147105
